Source listed as patent US8633218B2.

system: dopamine (DA) reuptake in synaptosomes; assay: Inhibition of 3H-DA reuptake in synaptosomes; type: biochemical; conditions: read-out: DA-uptake IC50
experimental readout: IC50 (nM)
# output: bare number, implied unit nM

INSERT INTO assay_data (compound, units, endpoint_value) VALUES
  ('Oc1ccc2sc(C3=CC4CCC(C3)N4)cc2c1 (centres unmarked)', 'nM', 94);

For the next question, use this compound.
State the recorded IC50 for this entry: COc1ccc2sc(C3=CC4CCC(C3)N4)cc2c1 (centres unmarked) 740
